Task for the reader: assign each of the following compounds its reported Survival.
tested on: Mus musculus; test: Antiinfectious effect against Escherichia coli 22 in ICR mice(10) at the dose of 0.1 mg/kg (i.p.) expressed as number of survivals; format: functional; conditions: route intraperitoneal
Numbers only.

Example entries and their recorded answers appear below.
IN: What value of Survival has been recorded for this entry: CCCCCCCC(=O)NC(CCC(=O)NC(CCCC(N)C(=O)O)C(=O)O)C(=O)O (centres undefined)
OUT: 7

IN: Then CC(O)C(=O)NC(C)C(=O)NC(CCC(=O)NC(CCCC(N)C(=O)O)C(=O)NCC(=O)O)C(=O)O (centres undefined) ?
OUT: 6

Batch lookup, Survival per entry.
1. CCCCCCCCCCCCCCCCCC(=O)NC(CCC(=O)NC(CCCC(N)C(=O)O)C(=O)O)C(=O)O (centres undefined)
2. NC(CCCC(NC(=O)CCC(N)C(=O)O)C(=O)O)C(=O)O (centres undefined)

OUT:
1. 7
2. 4
